Assign boiling point to each entry below.
Answers are plain numbers, in °C.

Solved cases below.
q: // lookup boiling point for `O=[N+]([O-])c1cc(F)ccc1F`
a: 206

q: // lookup boiling point for CNC(C)CC1CCCCC1 (stereo not drawn)
a: 205

q: // lookup boiling point for COCC(C)OC (stereo not drawn)
a: 96

q: // lookup boiling point for `NCCCc1ccccc1`
a: 221

q: // lookup boiling point for `CCc1ccccc1C`
a: 165

Dear colleague, could you send me boiling point for each of the items below? Thanks.
1. CC(C)=NN=C(C)C
2. c1ccc2ncccc2c1

a:
133
237

---

VALUE_TYPE: boiling point (°C)
Give bare numbers, in °C.

q: // lookup boiling point for `CC(C)=CC(C)C`
a: 83.4

Dear colleague, could you send me boiling point for each of the items below? Thanks.
1. CCCC1CCCC(C)C1 (stereo not drawn)
2. Cc1ccc(Cl)cc1[N+](=O)[O-]
3. C/C=C(/C)C(C)C
4. ClCc1cccc2ccccc12
5. CC(C)(C)c1cccc([N+](=O)[O-])c1
6. C=CC1CC=CCC1 (stereo not drawn)
7. CC(C)CC(C)Cl (stereo not drawn)

a:
1: 164; 2: 242; 3: 89.9; 4: 292; 5: 254; 6: 128; 7: 113

Dear colleague, could you send me boiling point for each of the items below? Thanks.
1. COc1ccc(C)c([N+](=O)[O-])c1
2. CCCCCCOC(=O)CC
3. CCOC(=O)C(CC)C(=O)OCC
4. CCC(CC)CCC(C)C
5. C=CCC(C(=O)OCC)C(=O)OCC

a:
1: 266; 2: 190; 3: 208; 4: 160; 5: 222

Dear colleague, could you send me boiling point for each of the items below? Thanks.
1. COc1cccc(C)c1OC
2. c1ccc(-n2ccnc2)cc1
3. COc1ccc([N+](=O)[O-])cc1
4. CCCCCCC(=O)CCCC

a:
[204, 276, 274, 227]

Dear colleague, could you send me boiling point for each of the items below? Thanks.
1. CC(CCl)CCCl (stereo not drawn)
2. CC(C)(C)CCC(C)(C)C
3. Cc1cccc(C(=O)Cl)c1

a:
168
137
220

Cited source for all entries: the OPERA property sets (Mansouri et al. 2018)
